Reference source: the NIST ThermoML archive (doi:10.1021/je100231g)

conditions: 323.2 K; Liquid; Gas Saturation Method
Structures can show the parent of a compound that is named as a salt.
measured_endpoint: vapor or sublimation pressure (kPa)

CCCCOC(=O)CCC(=O)OCCCC: 0.00325

(1) CCCCOC(=O)C(=O)OCCCC [di-n-butyl oxalate]
(2) CCCCOC(=O)CC(=O)OCCCC [dibutyl 1,3-propanedioate]
(3) CCCCOC(=O)CCCCC(=O)OCCCC [dibutyl hexanedioate]
INPUT: Task for the reader: rank each entry by its vapor or sublimation pressure, from the minimum upward. Give the labels in the order requested.
OUTPUT: 3, 2, 1
(3: 0.00048 kPa, 2: 0.00878 kPa, 1: 0.0159 kPa)

###

conditions: 333.2 K; Liquid; Gas Saturation Method
measured_endpoint: vapor or sublimation pressure (kPa)

CCCCOC(=O)CCC(=O)OCCCC: 0.00743

(I) CCCCOC(=O)CC(=O)OCCCC [dibutyl 1,3-propanedioate]
(II) CCOC(=O)CCCC(=O)OCC [diethyl glutarate]
INPUT: Select one: I or II . Criterion: greater recorded vapor or sublimation pressure. Let me know the label of the one you choose.
OUTPUT: II

###

settings: 333.5 K; Liquid; Gas Saturation Method
Counter-ions that a name gives are not always drawn.
measured_endpoint: vapor or sublimation pressure (kPa)

Solved entries (count: 2):
CCOC(=O)C(=O)OCC [diethyl ethanedioate]: 0.6275
CCCOC(=O)C(=O)OCCC [di-n-propyl oxalate]: 0.1801

(1) CCCOC(=O)CC(=O)OCCC [dipropyl 1,3-propanedioate]
(2) CCCCOC(=O)CCCC(=O)OCCCC [dibutyl pentanedioate]
INPUT: Of the two listed items, which has the higher vapor or sublimation pressure? First: 1 Second: 2 Please reply using the label of the selected record.
OUTPUT: 1

###

settings: 313.3 K; Liquid; Gas Saturation Method
measured_endpoint: vapor or sublimation pressure (kPa)

CCOC(=O)CC(=O)OCC [diethyl 1,3-propanedioate]: 0.0814
CCOC(=O)CCCCC(=O)OCC [diethyl hexanedioate]: 0.00523
CCCCOC(=O)CCC(=O)OCCCC: 0.00132

(1) CCCCOC(=O)CC(=O)OCCCC [dibutyl 1,3-propanedioate]
(2) CCCOC(=O)CC(=O)OCCC [dipropyl 1,3-propanedioate]
INPUT: Hi! Which is lower in terms of vapor or sublimation pressure, the first one 1 or the second one 2 ? State the label of the item chosen.
OUTPUT: 1

###

details: 316.4 K; Liquid; Gas Saturation Method
measured_endpoint: vapor or sublimation pressure (kPa)

Worked examples follow.
CCOC(=O)C(=O)OCC [diethyl ethanedioate]: 0.2075
CCCOC(=O)CCC(=O)OCCC: 0.00936

(1) CCOC(=O)CCC(=O)OCC [diethyl butanedioate]
(2) CCCOC(=O)CCCC(=O)OCCC
INPUT: Sort 1 and 2 by vapor or sublimation pressure descending and give the first. I would appreciate it if you answered with the label of your choice.
OUTPUT: 1

###

conditions: 333.2 K; Liquid; Gas Saturation Method
Structures can show the parent of a compound that is named as a salt.
measured_endpoint: vapor or sublimation pressure (kPa)

(1) CCCOC(=O)CCCCC(=O)OCCC [dipropyl hexanedioate]
(2) CCCCOC(=O)C(=O)OCCCC [di-n-butyl oxalate]
INPUT: Which item exceeds the other in vapor or sublimation pressure, 1 or 2 ? Label of pick, please.
OUTPUT: 2
